# system_under_test: Cytochrome P450 2C19 (Homo sapiens) (UniProt P33261)
# Sequence (P33261 whole entry, looked up): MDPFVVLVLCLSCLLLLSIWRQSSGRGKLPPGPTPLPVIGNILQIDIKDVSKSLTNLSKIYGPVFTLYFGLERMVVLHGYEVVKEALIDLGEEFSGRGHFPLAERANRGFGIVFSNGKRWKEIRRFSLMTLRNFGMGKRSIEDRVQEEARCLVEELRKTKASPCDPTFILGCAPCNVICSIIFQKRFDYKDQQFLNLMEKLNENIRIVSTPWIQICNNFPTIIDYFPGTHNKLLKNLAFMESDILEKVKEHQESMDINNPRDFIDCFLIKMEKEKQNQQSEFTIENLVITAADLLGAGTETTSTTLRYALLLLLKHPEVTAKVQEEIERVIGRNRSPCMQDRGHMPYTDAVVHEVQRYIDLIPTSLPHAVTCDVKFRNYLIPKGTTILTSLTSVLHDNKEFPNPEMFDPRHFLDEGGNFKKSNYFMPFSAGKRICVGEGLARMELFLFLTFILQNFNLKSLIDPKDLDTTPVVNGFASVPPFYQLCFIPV
# protocol_text: qHTS Assay for Inhibitors and Substrates of Cytochrome P450 2C19 (AID 899); note: nearly all actives have a fitted effect of over 60% in size
# measurement_context: recombinant CYP2C19, luciferin-H EGE luminescence; series mostly up to 57.1 µM
# Protocol: NIH Molecular Libraries Screening Centers Network [MLSCN] NIH Chemical Genomics Center [NCGC] The P450 gene superfamily is involved in the metabolism and clearance of xenobiotics. […] The luciferin is then measured by luminescence after the addition of a luciferase detection reagent. […] Inhibitors and some substrates limit the production of luciferin, and decrease measured luminescence. […]
Records with an inconclusive call do not appear. Calls of active or inactive are those of the source. Calls come from the whole dose curve; as a rule, active = well fitted inhibition curve with a large enough effect; inconclusive = small, poorly fitted or top-dose-only effect; inactive = no such curve, though single readings can be large or run the other way.
Response enum: true (1) (active), false (0) (inactive)

compound	classification
Clc1cccc(Nc2nnc(-c3ccccc3)c3ccccc23)c1	true (1)
CC#C[C@]1(O)CC[C@H]2[C@@H]3CCC4=CC(=O)CCC4=C3[C@H](c3ccc(N(C)C)cc3)C[C@@]21C	true (1)
COc1ccc2c(c1)c(CC(=O)N1CCOCC1)c(C)n2C(=O)c1ccc(Cl)cc1	false (0)
Cc1cc(C)c(S(=O)(=O)Nc2cccc(C(F)(F)F)c2)c(C)c1	true (1)
CCCCCN=c1ccn(Cc2ccccc2)c2ccccc12	true (1)

Switching to the query record.
QUERY: Kindly provide the recorded test outcome for the following compound: O=C(O)c1cc(=O)c2ccc(Cl)cc2[nH]1
RESULT: false (0)

----------
# System: JEG-3
# protocol_text: Primary qHTS to identify gynecologic anti-cancer compounds using libraries of approved drugs and bioactive compounds (AID 1345084); note: nearly all actives have a fitted effect of over 55% in size
# measurement_context: Gynecologic cancer cell panel viability, ATPlite luminescence, 48 h; series mostly up to 57.5 µM
Results filed as inconclusive are left out. Active and inactive are the calls of the source. Calls come from the whole dose curve; as a rule, active = well fitted cell-killing curve with a large enough effect; inconclusive = small, poorly fitted or top-dose-only effect, or effect the other way; inactive = flat fitted curve, though single readings scatter.
Response enum: active, inactive

compound	system_under_test	classification
C[C@H](NC(=O)C(C)(C)Oc1ccc(C(F)(F)F)cn1)[C@@H](Cc1ccc(Cl)cc1)c1cccc(C#N)c1	JEG-3	inactive

QUERY: Kindly provide the recorded test outcome for the following compound: COc1ccc2c(c1)CN(C(=O)CCN1CCC(Cc3ccccc3)CC1)CCS2
RESULT: inactive

QUERY: Kindly provide the recorded test outcome for the following compound: Cc1ccc(C(=O)N2CCN(c3ccc([N+](=O)[O-])cc3)CC2)cc1Cl
RESULT: inactive

QUERY: Kindly provide the recorded test outcome for the following compound: COc1cccc(NC[C@@H](O)Cn2c3ccc(Br)cc3c3cc(Br)ccc32)c1
RESULT: inactive

QUERY: Kindly provide the recorded test outcome for the following compound: Fc1ccc(C2CCNC[C@H]2COc2ccc3c(c2)OCO3)cc1 (stereo not given in full)
RESULT: inactive

QUERY: Kindly provide the recorded test outcome for the following compound: C[C@@H](c1nc(-c2ccc(C#N)cc2)cs1)[C@](O)(Cn1cncn1)c1cc(F)ccc1F
RESULT: inactive

QUERY: Kindly provide the recorded test outcome for the following compound: CCN1CCN(Cc2ccc(-c3cc4c(NC(C)c5ccccc5)ncnc4[nH]3)cc2)CC1 (stereo not given)
RESULT: inactive

QUERY: Kindly provide the recorded test outcome for the following compound: CC(C)(C)c1ccc(-c2nc3ccccc3[nH]2)cc1
RESULT: active

QUERY: Kindly provide the recorded test outcome for the following compound: CNc1cc(OC)c(C(=O)N[C@@H]2CCN(Cc3ccccc3)[C@@H]2C)cc1Cl
RESULT: inactive

QUERY: Kindly provide the recorded test outcome for the following compound: COc1cc2nc(-c3cc(F)ccc3O)nc(N[C@@H]3CNC[C@H]3C(C)(C)O)c2cc1OC
RESULT: inactive
